- system.under.test: T1, recombinant human regenerating islet-derived protein 1α (REG1A) (human, UniProt P05451 23-166, limits assumed)
- T1 construct: also called recombinant human REG1A; recombinant REG1A
- T1 sequence (looked up): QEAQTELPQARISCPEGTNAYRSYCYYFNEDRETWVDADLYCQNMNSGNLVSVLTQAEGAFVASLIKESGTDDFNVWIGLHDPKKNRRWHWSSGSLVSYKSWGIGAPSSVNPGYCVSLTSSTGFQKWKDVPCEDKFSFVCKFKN
- experimental.details: sandwich ELISA; capture 11D11B11; REG1A 33.33 ng/mL
parameter.measured: OD value (OD)
Numbers only, in OD.

Some solved entries appear below for comparison.
>>> experimental_value("antibody 21B11D2 (antibody, mouse IgG2b, kappa, V domains shown, Mouse monoclonal from hybridoma, stated mouse IgG1/Kappa; Used unlabelled as capture and biotin-labelled as detection antibody; also called 21B11D2-biotin) VH: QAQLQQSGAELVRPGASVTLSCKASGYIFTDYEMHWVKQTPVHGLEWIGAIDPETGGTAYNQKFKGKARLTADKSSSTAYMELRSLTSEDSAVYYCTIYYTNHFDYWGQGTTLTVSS VL: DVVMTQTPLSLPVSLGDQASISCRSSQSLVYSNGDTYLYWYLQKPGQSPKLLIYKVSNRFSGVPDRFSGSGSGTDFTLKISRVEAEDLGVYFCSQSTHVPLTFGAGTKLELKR")
0.063
>>> experimental_value("antibody 11D11B11 (antibody, mouse IgG2a, kappa, V domains shown, Mouse monoclonal from hybridoma, stated mouse IgG1/Kappa; Used unlabelled as capture and biotin-labelled as detection antibody; also called 11D11B11-biotin) VH: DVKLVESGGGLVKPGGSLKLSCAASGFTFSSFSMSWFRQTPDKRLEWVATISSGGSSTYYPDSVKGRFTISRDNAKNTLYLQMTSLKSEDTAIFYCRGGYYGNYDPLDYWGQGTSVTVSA VL: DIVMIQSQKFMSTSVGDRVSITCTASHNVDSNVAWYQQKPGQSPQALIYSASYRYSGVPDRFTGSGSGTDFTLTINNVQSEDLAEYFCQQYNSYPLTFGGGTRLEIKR")
0.064

Shift focus to the following entry.
**Query** Query (binder): antibody 12F12A10 (antibody, V domains shown, Mouse monoclonal from hybridoma, stated mouse IgG1/Kappa; also called 12F12A10-biotin; Antibody 2) VH: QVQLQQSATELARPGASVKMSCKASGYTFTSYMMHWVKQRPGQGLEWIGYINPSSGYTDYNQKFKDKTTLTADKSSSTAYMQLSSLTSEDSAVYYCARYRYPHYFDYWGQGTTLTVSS VL: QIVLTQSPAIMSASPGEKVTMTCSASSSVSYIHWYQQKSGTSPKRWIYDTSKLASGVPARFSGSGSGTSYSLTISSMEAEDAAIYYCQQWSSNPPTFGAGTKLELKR ; field requested: OD value
**Result** 4.08
